Each recorded value in this set is attributed to patent US20090311283A1.

# target_entity: T1, HLA-DRB1*0401 (human)
# T1 chain 1: not shown
# T1 chain 2: not shown
# measurement_notes: inhibition of 125I-labelled probe peptide binding to purified HLA-DR; gel filtration
# protocol_conditions: remark: other sources report otherwise
measured_quantity: binding affinity ratio (IC50 of standard peptide / IC50 of test peptide)

# binder, reported_result
records = [
    ("VGLLGFAAPFTQCGY (modifications not checked) [… (HBV POL 626, 15-mer)]", -0.0014),
    ("IVGLLGFAAPFTQCG (modifications not checked) [… (HBV POL 625, 15-mer)]", -0.0007),
    ("GFFLLTRILTIPQSL (modifications not checked) [… (HBV ENV 181, 15-mer)]", 3.1),
    ("HLSLRGLPVCAFSSA (modifications not checked) [… (HBV X 52, 15-mer)]", 0.0028),
]
